All figures here come from paper PMC8626775.

Each record here notes measured EC50.
Test system: S. mansoni schistosomula
Assay: S. mansoni schistosomula high-throughput phenotype and motility screen (Roboworm), 72 h
Format: cell-based, Schistosoma mansoni
Conditions: Schistosoma mansoni, Table 4, Series A; read-out: Anti-schistosomal activity EC50 Schistosomula (μM) Phenotype
Protocol: Cercariae derived from the NMRI ([…]) Puerto Rican strain (PR-1) of S. mansoni were shed from two Biomphalaria glabrata strains, the NMRI albino and pigmented outbred strains, under intensified lighting conditions (1 h of incubation at 26 °C). Cercariae were then mechanically transformed into schistosomula as previously described. High-throughput screening (HTS) of selected compounds was conducted as previously described. […]
All answers are understood in µM, so give the number only.

>>> measurednumber("O=[N+]([O-])c1ccc2nc(Nc3ccc(C(F)(F)F)cc3)c(Nc3ccc(C(F)(F)F)cc3)nc2c1 [Compound 31]")
0.34
>>> measurednumber("O=[N+]([O-])c1ccc2nc(Nc3ccc(Br)cc3)c(Nc3ccc(Br)cc3)nc2c1 [Compound 29]")
1.06
>>> measurednumber("O=[N+]([O-])c1ccc2nc(Nc3ccc(Cl)c(Cl)c3)c(Nc3ccc(Cl)c(Cl)c3)nc2c1 [Compound 22]")
0.47
>>> measurednumber("O=[N+]([O-])c1ccc2nc(Nc3ccc(F)c(C(F)(F)F)c3)c(Nc3ccc(F)c(C(F)(F)F)c3)nc2c1 [Compound 32]")
0.89
>>> measurednumber("O=[N+]([O-])c1ccc2nc(Nc3cc(C(F)(F)F)ccc3F)c(Nc3cc(C(F)(F)F)ccc3F)nc2c1 [Compound 33]")
0.15

Then this compound:
Reported EC50, compound O=[N+]([O-])c1ccc2nc(Nc3ccc(Cl)cc3)c(Nc3ccc(Cl)cc3)nc2c1 [Compound 26] : ____ 0.42
